measurement.target: human IDO1 (Homo sapiens, UniProt P14902)
Sequence (P14902 whole entry): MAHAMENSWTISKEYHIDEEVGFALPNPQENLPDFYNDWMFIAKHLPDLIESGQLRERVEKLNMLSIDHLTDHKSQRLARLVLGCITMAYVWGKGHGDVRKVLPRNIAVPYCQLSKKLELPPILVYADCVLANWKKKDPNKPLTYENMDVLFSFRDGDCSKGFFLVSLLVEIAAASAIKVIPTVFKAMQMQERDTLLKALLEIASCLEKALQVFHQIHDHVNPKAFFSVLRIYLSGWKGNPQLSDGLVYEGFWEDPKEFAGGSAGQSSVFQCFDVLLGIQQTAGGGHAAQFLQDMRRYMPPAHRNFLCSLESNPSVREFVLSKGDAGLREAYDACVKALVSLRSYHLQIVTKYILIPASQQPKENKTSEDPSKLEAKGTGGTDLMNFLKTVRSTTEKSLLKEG
test.protocol: Assessment of human IDO-1 inhibitory activity in HEK cells (human IDO1/HEK293 cells, kynurenine read-out with Ehrlich reagent, absorbance 490 nm)
Assay type: cell-based
Parameters: expressed in transfected cells
condition.context: HEK Human IDO-1 cellular assay
reported.property: IC50

Check out these entries, answers already filled in.
INSERT INTO assay_data (compound, measured) VALUES
  ('CCC(CC(=O)O)c1ccc(N(CC(C)C)C2CCCCC2)c(Nc2ccc(Cl)c(OC(F)F)c2)c1 (single isomer, unassigned) [Example 649]', '< 50 nM'),
  ('CCOc1ccc(NC(=O)Nc2cc(C(COC)CC(=O)O)cc(F)c2N(CC(C)C)C2CCCCC2)cc1 (single isomer, unassigned) [Example 1160]', '< 5 nM'),
  ('CCC(CC(=O)O)c1cc(F)c(N(CC(C)C)CC(C)C)c(NC(=O)Nc2ccc(C)c(F)c2)c1 (single isomer, unassigned) [982-1]', '< 5 nM'),
  ('COCC(CC(=O)O)c1ccc(N(CC(C)C)C2CCCCC2)c(NC(=O)Nc2ccc(OC)cc2F)c1 (single isomer, unassigned)', '< 5 nM');

### Prompt // returns reported IC50 for input CCN(c1ccc(C(C)CC(=O)O)cc1Nc1cnc(C)nc1)C1CCOCC1 (single isomer, unassigned) [Example 623]
### Response < 50 nM

### Prompt Endpoint output: IC50 of CC[C@H](CC(=O)O)c1ccc(N(CC2CC2)CC(C)(C)O)c(Nc2ccc(Cl)cc2)c1 (single isomer, unassigned) . Value?
### Response < 5 nM

* * *

The following molecules are listed with their measured pIC50 values.
measurement.target: human IDO1 (Homo sapiens)
test.protocol: Assessment of human IDO-1 inhibitory activity in HEK cells (human IDO1/HEK293 cells, kynurenine read-out with Ehrlich reagent, absorbance 490 nm)
Format: cell-based
Parameters: expressed in transfected cells
condition.context: HEK Human IDO-1 cellular assay
pIC50: −log10 of the molar value.

Please review the following examples before continuing.
INSERT INTO results (molecule, measured) VALUES
  ('CCc1ccc(Nc2cc(C(C)(C)CC(=O)O)ccc2N2C[C@@H](C)O[C@@H](C)C2)cc1', '< 7.30'),
  ('CC(C)CN(c1ccc(C(CC(=O)O)C2CC2)cc1NC(=O)Nc1cncnc1)C1CCOCC1 (racemic) [Example 1206]', '< 7.30'),
  ('CCOc1ncc(Nc2cc([C@@H](CC)CC(=O)O)ccc2N(CC(C)(C)O)C2CCOCC2)cn1 (single isomer, unassigned)', '< 7.30'),
  ('CCC(CC(=O)O)c1cc(F)c(N(CC(C)C)CC(C)C)c(Nc2ccnc(N3CCOCC3)n2)c1 (single isomer, unassigned)', '< 7.30'),
  ('CCC(CC(=O)O)c1ccc(N(CC)C2CCCOC2)c(NC(=O)Nc2ccc(C)cc2)c1 (single isomer, unassigned) [Example 73 D1]', '> 8.30');

Shifting focus to the molecule that follows.
### Prompt Query the reported pIC50 for human IDO1 (Homo sapiens); item: CCC(CC(=O)O)c1ccc(N2CCC[C@H]2C(C)(C)O)c(Nc2ccc3c(c2)OC(F)(F)O3)c1 (single isomer, unassigned) [Example 821]
### Response > 7.30

* * *

// reported IC50 for each item listed
measurement.target: human IDO1 (Homo sapiens, UniProt P14902)
test.protocol: Assessment of human IDO-1 inhibitory activity in HEK cells (human IDO1/HEK293 cells, kynurenine read-out with Ehrlich reagent, absorbance 490 nm)
Assay type: cell-based
Parameters: expressed in transfected cells
condition.context: HEK Human IDO-1 cellular assay

### Prompt I am curious: what IC50 value has been reported for CCN(c1ccc(C(CC(=O)O)C2CC2)cc1Nc1ccc(C#N)cc1)C1CCOCC1 (single isomer, unassigned) ?
### Response < 5 nM

### Prompt Could you tell me which IC50 is on file for CC(C)CN(CC(C)C)c1c(F)cc(C(CC(=O)O)c2ccccc2)cc1Nc1ccc(Cl)cc1 (single isomer, unassigned) ?
### Response < 50 nM

### Prompt Give its IC50 value. Item: CCC(CC(=O)O)c1ccc(N(CC)C2CCCOC2)c(NC(=O)Nc2ccc(C)cc2)c1 (single isomer, unassigned) [Example 73 D4]
### Response < 5 nM

### Prompt Tell me the measured IC50 of CCCN(CC1CC1)c1ccc(C(CC)CC(=O)O)cc1Nc1ccc2c(c1)OC(F)(F)O2 (single isomer, unassigned) [Example 659] , please.
### Response < 50 nM

### Prompt // returns reported IC50 for input C[C@@H]1CN(c2ccc(C(C)(C)CC(=O)O)cc2Nc2ccc(Cl)cc2)C[C@H](C)O1
### Response < 50 nM

### Prompt Query (compound): CC[C@@H](CC(=O)O)c1ccc(N(CC)C2CCOCC2)c(Nc2ccc(OCC(F)(F)F)cc2)c1 (single isomer, unassigned) ; field requested: IC50
### Response < 5 nM

Recorded values, source patent US9790169B2.
